- MEASUREMENT_DESCRIPTION: PET hydrolysis, aromatic products released after 48 h (umol product/mg enzyme); higher = more PET depolymerization activity
- CONDITION_LABEL: substrate: cryPow; 40 °C; pH 7.5

ITEM_SEQUENCE	PET hydrolysis
GQAPTTAAQVRASAFAKGPDPTEQTIKAQRGPFQIKQLSVAAQSGRGFNRGTIYYPTDTGQGTYGAIAVIPGFLEPEFITSWYGPTLASYGFVVMTLEPFAITDFPDPRSNQLLAAVDWLAADSPVKAQVDPNRLAVMGHSMGGGGALLAASKRPSLKAAVPLAPWNLYADFAGVTVPTLVIGADNDFIAPVGMHADPMYASIKASPNEGYLKLKNADHFTVNSYSATLTKFTVSWMKRYVDEDTRYTQFLCPAPQPDPSFASFQMTCPS [TEP173]	< 3
DEIGQAPTSSNITGNGSFSVSTYNISSLVTGFGGGVAYYPSTAGRYPVVAVSPGFTARWSSISWIGPRLASWGFVVVGIETNSVYDQPASRGSQLLAALNWAVNSAPSAITSRADGSRRGVAGHSMGGGGTLEALAADTTGNVKAGVPLAPWNSDKTWNNVNEPVQIIGGESDTVAGVSSHSIPFYNSLGGSKSYVELNGASHFFPQTTNATTSRALVSWFKRWLNQDARFTPFTCGYGGTAVSDFRTNAC [ESM177]	42
AETTTQHGPDPTEGSITAPTGPFQTDQKTVPRSSVQGFGGGTIYYPTETSQGTFGAVTIAPGYTAGKESLAWLGPRLASQGFVVFTIDTITTSDQPDSRAKQLMASLDYLTGDSDVRDRIDTSRLAVMGHSMGGGGTLEAARDNRNLKAAIPMTPWDTTKDFSGVQTPTLIIGAQNDTIAPVAQHAKPFYGSLPDDPGKAYLELAGASHFAPNQDNTTIAKSSIAWLKRFVDDDTRYDQFLCPPPQDAEISDYQSTCPY [TEP037]	< 3

----------
- MEASUREMENT_DESCRIPTION: PET hydrolysis, aromatic products released after 48 h (umol product/mg enzyme); higher = more PET depolymerization activity
- CONDITION_LABEL: substrate: cryPow; 60 °C; pH 6.5
VALUE_KIND: PET hydrolysis

ITEM_SEQUENCE	VALUE_KIND	RESULT
DEIGQAPTASNITGNGSFATTSASISSTVAGFGGGRVYYPTATGTYPVIAISPGFTATWSSLSWIGPRLSSWGFVVVGIETNSIYDQPGSRGSQLLAALNWAVSSSPTAVRSRVDGSRRGVAGHSMGGGGTLEALAADTSGLVKAGVPLAPWNSDKTWNNVSEPVLIVGGQSDTIAPVSSHSVPFYNTLAGPKTYVELTGASHFFPQSSNATTSRALVSWFKRWLNQDSRFTPFTCGFSGAAVSSFRTNAC [ESM093]	PET hydrolysis	23
ADNPYQRGPEPTTSSVAATRGTFATAEVSVSKGNGFGGGKIYYPTDTSKGTFGAIAVVPGYTATWAAEGAWMGPWLASFGFVVIGIDTNSRTDYDTARGTQLLAALDYLTQKSSVRSRVDVKRLSVMGHSMGGGGAMYAALHRPSLWAAVGNAPFSPSQNLKSDRVPTLLLAGQKDTTVTPSSVVGLYNGIPAATEKGYLELTGAAHNFPTRSNSVMMRKVVPWLKIFVDHDTRYGQFLCPSLKDTTGITSYRSTCPLTTAGQ [ESM078]	PET hydrolysis	< 3
QYQKGPDPTTSSLERAGSFATRTISVSSLAASGFGGGRIYYPTASGSYGVIAVSPGYTGTASTMYFWGERLSSHGFVVIVIETNTLLDQPGSRANQLMAALNYTVSQGNSRTSALYGKVDGNRRGVAGHSMGGGGTLIAAADNASLKAAVPMAPWNLSSLSFRGIRVPTMIFGCQSDAIAPVNTHAVPFYNAIPSSTKKGYVEMRLDDHFCVMNGGGHYETLGKLGISWFKRFIDEDTRYSKFLCGTEYNATVRSTEVSDSKNNCPY [DP039]	PET hydrolysis	< 3
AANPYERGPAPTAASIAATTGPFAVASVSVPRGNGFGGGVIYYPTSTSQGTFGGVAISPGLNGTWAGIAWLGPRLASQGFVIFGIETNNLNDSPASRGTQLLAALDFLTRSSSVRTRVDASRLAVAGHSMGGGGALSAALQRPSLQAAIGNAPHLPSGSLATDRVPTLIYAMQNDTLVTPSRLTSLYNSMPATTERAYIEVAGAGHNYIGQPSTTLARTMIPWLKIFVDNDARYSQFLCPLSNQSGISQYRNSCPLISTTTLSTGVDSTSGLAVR [ESM157]	PET hydrolysis	7.5
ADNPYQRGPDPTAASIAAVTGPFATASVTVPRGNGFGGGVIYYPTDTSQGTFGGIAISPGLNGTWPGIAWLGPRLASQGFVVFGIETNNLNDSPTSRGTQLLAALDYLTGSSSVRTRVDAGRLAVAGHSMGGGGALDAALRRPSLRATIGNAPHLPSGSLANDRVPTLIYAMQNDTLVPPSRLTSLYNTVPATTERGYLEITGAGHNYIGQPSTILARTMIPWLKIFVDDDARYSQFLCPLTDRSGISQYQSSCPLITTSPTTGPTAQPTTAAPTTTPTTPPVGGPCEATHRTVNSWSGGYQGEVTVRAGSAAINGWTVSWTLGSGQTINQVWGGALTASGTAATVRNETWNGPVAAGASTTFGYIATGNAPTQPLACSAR [ESM060]	PET hydrolysis	5.5
